# Tested target: LXRβ (Homo sapiens)
# Construct: Co-transfection expression plasmids, comprising full-length LXRα (pCMX-h LXRα[…] or LXRβ (pCMX-hLXRβ))
# Test description: Co-transfection assay (LXRE luciferase reporter), LXRβ
# Condition parameters: CV-1 cells transfected with pCMX-hLXRβ and LXREx1-Tk-Luciferase; 20 hours incubation
# Protocol: To measure the ability of compounds to activate or inhibit the transcriptional activity of LXR in a cell based assay, the co-transfection assay was used. It has been shown that LXR functions as a heterodimer with RXR. […] Treatment of transfected cells with an LXR agonist increases the transcriptional activity of LXR, which is measured by an increase in luciferase activity. […]
Measurement name: EC50 (nM)

CCc1nc(-c2ccc(OC(F)(F)F)cc2)c(-c2cc(-c3cc(F)c(CO)c(S(C)(=O)=O)c3)ccc2-n2cc(C(F)(F)F)nc2C)o1 ... 20
Cc1nc(-c2cc(-c3cc(F)c(CO)c(S(C)(=O)=O)c3)ccc2-n2cc(C(F)(F)F)nc2C)c(-c2ccc(Cl)cc2)o1 ... 50
Cc1nc(-c2cc(-c3cccc(C(C)(C)C(N)=O)c3)ccc2-n2cc(C(F)(F)F)nc2C)c(-c2ccc(OC(F)F)cc2)o1 ... 82
Cc1nc(C(F)(F)F)cn1-c1ccc(-c2cccc(S(C)(=O)=O)c2)cc1-c1nc(CC(=O)O)oc1-c1ccc(OC(F)(F)F)cc1 ... 661

[I] Cc1ccc(C(C)c2cnnn2-c2cc(-c3cccc(S(C)(=O)=O)c3)ccc2-n2cc(C(F)(F)F)nc2C)cc1 (stereo not drawn)
[II] CNS(=O)(=O)c1cccc(-c2ccc(-n3cc(C(F)F)nc3C)c(-n3nncc3-c3ccc(OC(F)(F)F)cc3)c2)c1
[III] Cc1nc(-c2ccc(Cl)cc2)c(-c2cc(-c3cccc(S(C)(=O)=O)c3)ccc2-n2cc(C(F)(F)F)nc2C)o1
[IV] Cc1cc(-c2cc(-c3cc(F)c(CO)c(S(C)(=O)=O)c3)ccc2-n2cc(C(F)(F)F)nc2C)n(-c2ccc3c(c2)OC(F)(F)O3)n1
[V] Cc1nc(-c2cc(-c3cc(F)c(CO)c(S(C)(=O)=O)c3)ccc2-n2cc(C(F)(F)F)nc2C)c(-c2ccc3ccccc3c2)o1
Arrange items by their EC50 values in increasing order. Note for the reader: the ranking is given by listing the labels in the order requested.
IV, V, III, II, I

----------
# Tested target: LXRβ (Homo sapiens)
# Construct: Co-transfection expression plasmids, comprising full-length LXRα (pCMX-h LXRα[…] or LXRβ (pCMX-hLXRβ)); expressed in transfected cells; host or cells: CV-1 African Green Monkey Kidney Cells
# Sequence (P55055 1-460): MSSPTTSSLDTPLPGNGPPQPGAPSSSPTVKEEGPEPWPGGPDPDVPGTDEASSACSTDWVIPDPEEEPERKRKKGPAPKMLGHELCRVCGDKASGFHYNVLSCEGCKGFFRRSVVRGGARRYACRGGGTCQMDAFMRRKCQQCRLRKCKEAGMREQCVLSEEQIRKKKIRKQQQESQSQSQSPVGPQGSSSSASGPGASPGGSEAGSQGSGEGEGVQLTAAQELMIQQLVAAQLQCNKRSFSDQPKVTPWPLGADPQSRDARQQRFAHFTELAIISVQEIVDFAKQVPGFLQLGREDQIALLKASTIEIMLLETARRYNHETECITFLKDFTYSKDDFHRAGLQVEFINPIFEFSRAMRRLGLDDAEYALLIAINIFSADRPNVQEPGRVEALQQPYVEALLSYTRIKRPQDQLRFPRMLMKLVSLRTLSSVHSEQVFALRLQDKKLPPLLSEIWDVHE
# Sequence (P19793 1-462 partner): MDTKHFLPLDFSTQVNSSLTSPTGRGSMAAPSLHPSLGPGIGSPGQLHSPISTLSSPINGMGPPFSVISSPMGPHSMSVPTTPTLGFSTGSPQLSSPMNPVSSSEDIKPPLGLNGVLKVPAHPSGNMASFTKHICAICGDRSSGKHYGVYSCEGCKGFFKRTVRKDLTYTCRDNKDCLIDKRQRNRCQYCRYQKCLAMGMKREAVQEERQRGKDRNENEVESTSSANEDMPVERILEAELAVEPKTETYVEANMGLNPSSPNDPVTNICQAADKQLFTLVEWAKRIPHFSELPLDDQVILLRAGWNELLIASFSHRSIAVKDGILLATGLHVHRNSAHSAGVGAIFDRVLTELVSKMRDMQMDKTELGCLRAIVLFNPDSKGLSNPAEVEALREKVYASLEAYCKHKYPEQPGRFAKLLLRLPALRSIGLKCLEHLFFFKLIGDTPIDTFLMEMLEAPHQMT
# Test description: Co-transfection assay (LXRE luciferase reporter), LXRβ
# Type: cell-based
# Condition parameters: LXRβ co-transfection; relative to high control 1-(2,4-difluorobenzyl)-2-oxo-6-(4-phenoxyphenyl)-4-(trifluoromethyl)-1,2-dihydropyridine-3-carbonitrile; read-out: % Efficacy
Measurement name: Emax (%)

Cc1nc(-c2cc(-c3cc(F)c(CO)c(S(C)(=O)=O)c3)ccc2-n2cc(C(F)(F)F)nc2C)c(-c2ccc(Cl)c(OC(F)F)c2)o1 ... 77
COc1cnc(-c2oc(C)nc2-c2cc(-c3cccc(S(C)(=O)=O)c3)ccc2-n2cc(C(F)(F)F)nc2C)cn1 ... 72
Cc1cc(-c2cnnn2-c2cc(-c3cccc(S(C)(=O)=O)c3)ccc2-n2cc(C(F)(F)F)nc2C)ccc1OC(F)(F)F ... 93
Cc1nc(-c2cc(-c3cccc(C4(C(N)=O)CC4)c3)ccc2-n2cc(C(F)(F)F)nc2C)c(-c2ccc(OC(F)F)c(F)c2)o1 ... 65
Cc1nc(C(F)(F)F)cn1-c1ccc(-c2cccc(S(C)(=O)=O)c2)cc1-n1nncc1-c1cc(F)c(F)c(F)c1 ... 105
CS(=O)(=O)c1cccc(-c2ccc(-n3cnc(C(F)F)c3)c(-n3nncc3-c3ccc(OC(F)(F)F)cc3)c2)c1 ... 92
Cc1nc(C(F)F)cn1-c1ccc(-c2cccc(S(C)(=O)=O)c2)cc1-n1nncc1-c1ccc2c(c1)OC(F)(F)O2 ... 107
Cc1nc(C(F)(F)F)cn1-c1c(F)cc(-c2cccc(S(=O)(=O)N3CCCC3)c2)cc1-n1nncc1-c1ccc(OC(F)(F)F)cc1 ... 66
CCc1nc(-c2cc(-c3cc(F)c(CO)c(S(C)(=O)=O)c3)ccc2-n2cc(C(F)(F)F)nc2C)c(-c2ccc(OC(F)(F)F)cc2)o1 ... 100
Cc1nc(-c2cc(-c3cccc(S(C)(=O)=O)c3)ccc2-n2cc(C(F)(F)F)nc2C)c(-c2ccc(OC(F)F)nc2)o1 ... 72
Cc1ccc(-c2cnnn2-c2cc(-c3cc(F)c(CO)c(S(C)(=O)=O)c3)ccc2-n2cc(C(F)(F)F)nc2C)cc1 ... 89

Source: patent US9834542B2
